Tested on: A549 human lung adenocarcinoma epithelial cell line
assay name: MTT cytotoxicity test, A549
Format: cell-based
measurement conditions: 72 h incubation
measured quantity: CC50 (µM)
Quick note: give the figure in µM, leave out the unit.

Example entries begin here.
molecule: COc1ccc(N2C(=O)[C@@]3(CN(C)C[C@@]34C(=O)Nc3ccc(Cl)cc34)NC2=S)cc1 (racemic)
unit abbreviation: µM
CC50: 2.8

molecule: CN1CC2(NC(=S)N(Cc3ccccc3)C2=O)C2(C1)C(=O)Nc1ccccc12 (stereo not shown)
unit abbreviation: µM
CC50: 20.3

molecule: COc1ccc(N2C(=O)C3(CN(C)CC34C(=O)Nc3ccc(Cl)cc34)NC2=[Se])cc1 (stereo not shown)
unit abbreviation: µM
CC50: 15.8

molecule: CCOc1ccc(N2C(=O)C3(CN(C)CC34C(=O)Nc3ccc(Cl)cc34)NC2=S)cc1 (stereo not shown)
unit abbreviation: µM
CC50: 6.2

Q. State the recorded CC50 for this entry: CN1CC2(NC(=S)N(Cc3cccc(Cl)c3)C2=O)C2(C1)C(=O)Nc1ccc(Cl)cc12 (stereo not shown)
A. 11.3

Q. State the recorded CC50 for this entry: CCOc1ccc(N2C(=O)C3(CN(C)CC34C(=O)Nc3ccccc34)NC2=S)cc1 (stereo not shown)
A. 38.2

Q. State the recorded CC50 for this entry: CN1CC2(NC(=S)N(Cc3ccccc3)C2=O)C2(C1)C(=O)Nc1ccc(Cl)cc12 (stereo not shown)
A. 9.1

Q. State the recorded CC50 for this entry: CN1CC2(NC(=S)N(c3ccc(Cl)cc3)C2=O)C2(C1)C(=O)Nc1ccc(Cl)cc12 (stereo not shown)
A. 37

Q. State the recorded CC50 for this entry: Cc1ccc(N2C(=O)C3(CN(C)CC34C(=O)Nc3ccc(Cl)cc34)NC2=S)cc1 (stereo not shown)
A. 62

Q. State the recorded CC50 for this entry: C=CCN1C(=O)C2(CN(C)CC23C(=O)Nc2ccc(Cl)cc23)NC1=S (stereo not shown)
A. 32.1

Q. State the recorded CC50 for this entry: CN1CC2(NC(=O)N(c3ccc(F)c(Cl)c3)C2=O)C2(C1)C(=O)Nc1ccc(Cl)cc12 (stereo not shown)
A. 35.3

---

measured quantity: melting point

Example entries begin here.
molecule: COc1ccc(N2C(=O)C3(CN(C)CC34C(=O)Nc3ccc(Cl)cc34)NC2=[Se])cc1 (stereo not drawn)
measured quantity: melting point
result: 284 to 285 °C (dec.)
--
molecule: CN1CC2(NC(=S)N(Cc3cccc(Cl)c3)C2=O)C2(C1)C(=O)Nc1ccc(Cl)cc12 (stereo not drawn)
measured quantity: melting point
result: 261 to 262 °C
--
molecule: CN1CC2(NC(=S)N(c3ccc(F)cc3)C2=O)C2(C1)C(=O)Nc1ccccc12 (stereo not drawn)
measured quantity: melting point
result: 273 to 274 °C
--
molecule: Cc1ccc(N2C(=O)C3(CN(C)CC34C(=O)Nc3ccc(Cl)cc34)NC2=S)cc1 (stereo not drawn)
measured quantity: melting point
result: 159 to 160 °C
--
molecule: C=CCN1C(=O)C2(CN(C)CC23C(=O)Nc2ccccc23)NC1=S (stereo not drawn)
measured quantity: melting point
result: 281 to 283 °C (dec.)
--
molecule: CN1CC2(NC(=S)N(C3CC3)C2=O)C2(C1)C(=O)Nc1ccccc12 (stereo not drawn)
measured quantity: melting point
result: 272 to 273 °C (dec.)
--
molecule: CN1CC2(NC(=S)N(Cc3cccc(Cl)c3)C2=O)C2(C1)C(=O)Nc1ccccc12 (stereo not drawn)
measured quantity: melting point
result: 273 to 274 °C
--
molecule: CCOc1ccc(N2C(=O)C3(CN(C)CC34C(=O)Nc3ccc(Cl)cc34)NC2=S)cc1 (stereo not drawn)
measured quantity: melting point
result: 268 to 271 °C

Continue with the molecule presented below.
Q. State the recorded melting point for this entry: CN1CC2(NC(=S)N(CCCN3CCOCC3)C2=O)C2(C1)C(=O)Nc1ccc(Cl)cc12 (stereo not drawn)
A. 224 to 225 °C
